B1: MLL5 (parent)
chain: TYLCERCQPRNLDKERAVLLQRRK

- Variants of: B1
- Assay Info: protein stability index of a GFP-peptide fusion (GPS, HEK-293T) (PSI 1-6); higher = more stable;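 note: lentivirally expressed fusions sorted by FACS into six bins by GFP to DsRed ratio, PSI derived from sequencing read proportions per bin multiplied by bin number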
- Condition Parameters: c terminus: a fixed tail appended
The following ranges of protein stability index define the classes used here: 1 = under 2, 2 = from 2 up to 3, 3 = 3 and over

// below: answered variants
    var  assigned_class
0   C4A               3
1  V18E               2
2  K14W               2

Request: Class label required: T1A
Result: 2

Request: Class label required: R10G
Result: 3
